Target: full length human recombinant glucocorticoid receptor (Homo sapiens, UniProt P04150)
Construct: It contains some partially purified full length human recombinant glucocorticoid receptor
Assay: Glucocorticoid Receptor Binding Assay (Glucocorticoid Receptor Competitor Assay far red kit, fluorescence polarization)
Settings: competition with fluorescent GR ligand Fluormone GS Far Red, 3 hours at 22° C., pH 7.4; Ki calculated from IC50 by Cheng-Prusoff
MEASUREMENT_KIND: pKi
Scale for pKi: -log10 of concentration given in mol/L; no unit attached.

The examples below pair each entry with its known result.
[[record]]
compound = "C[C@@H](c1ccc(C(=O)O)cc1Cl)[C@](O)(c1ccc2c(c1)N(C)C(=O)CO2)C(F)(F)F (relative stereo)"
measurement_kind = "pKi"
value_observed = 6.58

[[record]]
compound = "C[C@@H](c1cc(Oc2ccc(C(=O)O)c(Cl)c2)ccc1Cl)[C@](O)(c1ccc2c(c1)N(C)C(=O)CO2)C(F)(F)F (relative stereo)"
measurement_kind = "pKi"
value_observed = 8.43


## Input Please respond with reported pKi (system full length human recombinant glucocorticoid receptor (Homo sapiens, UniProt P04150)) for COC(=O)c1ccc(Oc2ccc([C@H](C)[C@](O)(c3cc(C)c(C#N)c(C)c3)C(F)(F)F)c(Cl)c2)cc1Cl (stereo in doubt) .
## Output 8.77

====

Listed here: items and their measured pKi.
Biological target: full length human recombinant glucocorticoid receptor (Homo sapiens, UniProt P04150)
Construct: It contains some partially purified full length human recombinant glucocorticoid receptor
Experiment: Glucocorticoid Receptor Binding Assay (Glucocorticoid Receptor Competitor Assay far red kit, fluorescence polarization)
Details: competition with fluorescent GR ligand Fluormone GS Far Red, 3 hours at 22° C., pH 7.4; Ki calculated from IC50 by Cheng-Prusoff
Scale for pKi: -log10 of concentration given in mol/L; no unit attached.

The examples below pair each entry with its known result.
[[record]]
compound = "C[C@H](c1ccc(-c2cccc(C(=O)O)c2)cc1Cl)[C@@](O)(c1ccc2c(c1)oc(=O)n2C)C(F)(F)F (stereo in doubt) [Example 179]"
value_observed = 7.88

[[record]]
compound = "CC(c1ccc(Oc2ccc(F)c(C(=O)O)c2)cc1Cl)C(O)(c1ccc2c(c1)n(C)c(=O)n2C)C(F)(F)F (stereo not drawn) [Example 91]"
value_observed = 9.52

[[record]]
compound = "C[C@H](c1ccc(-c2ccc(C(=O)O)c(F)c2)cc1Cl)[C@@](O)(c1ccc2c(c1)OCC(=O)N2C)C(F)(F)F (stereo in doubt) [Example 164]"
value_observed = 8.12


## Input Please respond with reported pKi (system full length human recombinant glucocorticoid receptor (Homo sapiens, UniProt P04150)) for C[C@H](c1ccc(-c2ccc(C(=O)O)c(F)c2)cc1Cl)[C@@](O)(c1ccc(C#N)cc1)C(F)(F)F (relative stereo) [Example 152] .
## Output 7.34

## Input Please respond with reported pKi (system full length human recombinant glucocorticoid receptor (Homo sapiens, UniProt P04150)) for COC(=O)c1ccc(Oc2ccc([C@H](C)[C@](O)(c3cc(C)c(C#N)c(C)c3)C(F)(F)F)c(Cl)c2)nc1 (stereo in doubt) [Example 147] .
## Output 8.55

## Input Please respond with reported pKi (system full length human recombinant glucocorticoid receptor (Homo sapiens, UniProt P04150)) for C[C@H](c1ccc(-c2ccc(C(=O)O)c(Cl)c2)cc1Cl)[C@@](O)(c1ccc2c(c1)oc(=O)n2C)C(F)(F)F (relative stereo) [Example 135] .
## Output 6.81

====

Molecular target: full length human recombinant glucocorticoid receptor (Homo sapiens, UniProt P04150)
Construct: It contains some partially purified full length human recombinant glucocorticoid receptor
Sequence (P04150 1-777): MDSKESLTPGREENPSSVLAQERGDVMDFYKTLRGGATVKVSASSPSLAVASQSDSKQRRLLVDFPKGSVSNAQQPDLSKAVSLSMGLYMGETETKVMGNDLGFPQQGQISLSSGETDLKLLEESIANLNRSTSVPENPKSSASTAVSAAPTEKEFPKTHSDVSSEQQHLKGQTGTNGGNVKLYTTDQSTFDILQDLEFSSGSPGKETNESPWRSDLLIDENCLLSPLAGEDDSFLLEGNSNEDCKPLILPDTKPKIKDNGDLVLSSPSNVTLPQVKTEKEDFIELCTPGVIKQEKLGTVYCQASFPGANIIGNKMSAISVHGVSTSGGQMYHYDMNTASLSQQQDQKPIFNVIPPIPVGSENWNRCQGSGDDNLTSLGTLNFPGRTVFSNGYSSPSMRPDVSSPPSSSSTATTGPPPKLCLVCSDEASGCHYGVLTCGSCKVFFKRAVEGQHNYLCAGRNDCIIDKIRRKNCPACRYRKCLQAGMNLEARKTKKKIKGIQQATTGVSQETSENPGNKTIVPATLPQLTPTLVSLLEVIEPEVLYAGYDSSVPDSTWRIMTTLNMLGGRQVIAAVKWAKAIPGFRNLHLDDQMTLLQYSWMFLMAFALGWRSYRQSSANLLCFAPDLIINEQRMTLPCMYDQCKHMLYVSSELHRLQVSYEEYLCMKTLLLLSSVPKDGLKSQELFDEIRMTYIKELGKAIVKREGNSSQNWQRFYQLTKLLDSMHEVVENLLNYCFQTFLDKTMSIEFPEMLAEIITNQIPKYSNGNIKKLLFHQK
Assay: Glucocorticoid Receptor Binding Assay (Glucocorticoid Receptor Competitor Assay far red kit, fluorescence polarization)
Settings: competition with fluorescent GR ligand Fluormone GS Far Red, 3 hours at 22° C., pH 7.4; Ki calculated from IC50 by Cheng-Prusoff
MEASUREMENT_KIND: log10 Ki (log10 of the value in nM)
Answers are given as log10 of Ki in nM.

The examples below pair each entry with its known result.
[[record]]
compound = "COC(=O)c1ccc(-c2ccc([C@@H](C)[C@@](O)(c3ccc4oc(=O)n(C)c4c3)C(F)(F)F)c(Cl)c2)cn1 (relative stereo)"
measurement_kind = "log10 Ki"
value_observed = 0.32

[[record]]
compound = "C[C@H](c1ccc(Oc2ccc(C(=O)O)c(Cl)c2)cc1Cl)[C@](O)(c1ccc2c(c1)OCO2)C(F)(F)F (relative stereo)"
measurement_kind = "log10 Ki"
value_observed = 1.36

[[record]]
compound = "C[C@H](c1ccc(-c2cccc(CC(=O)O)c2)cc1Cl)[C@@](O)(c1ccc2c(c1)n(C)c(=O)n2C)C(F)(F)F (stereo in doubt)"
measurement_kind = "log10 Ki"
value_observed = 0.34


## Input Quote log10 Ki reported for C[C@@H](c1ccc(-c2ccc(C(=O)O)cc2F)cc1Cl)[C@](O)(c1ccc2c(c1)N(C)C(=O)CO2)C(F)(F)F (stereo in doubt) please.
## Output 0.89

## Input Quote log10 Ki reported for C[C@H](c1ccc(Oc2ccc(C(=O)O)cn2)cc1Cl)[C@@](O)(c1ccc(C#N)cc1)C(F)(F)F (stereo in doubt) please.
## Output 1.30

====

Biological target: full length human recombinant glucocorticoid receptor (Homo sapiens, UniProt P04150)
Construct: It contains some partially purified full length human recombinant glucocorticoid receptor
Assay: Glucocorticoid Receptor Binding Assay (Glucocorticoid Receptor Competitor Assay far red kit, fluorescence polarization)
Conditions: competition with fluorescent GR ligand Fluormone GS Far Red, 3 hours at 22° C., pH 7.4; Ki calculated from IC50 by Cheng-Prusoff
Listed here: items and their measured Ki.
Just the number please, in nM, no unit attached.

The examples below pair each entry with its known result.
[[record]]
molecule = "COC(=O)c1ccc(Oc2ccc([C@@H](C)[C@@](O)(c3ccc4oc(=O)n(C)c4c3)C(F)(F)F)c(Cl)c2)nc1 (relative stereo) [Example 174]"
value_observed = 2

[[record]]
molecule = "C[C@@H](c1ccc(Oc2ccc(C(=O)O)c(C(F)(F)F)n2)cc1Cl)[C@](O)(c1ccc2c(c1)n(C)c(=O)n2C)C(F)(F)F (stereo in doubt) [Example 115]"
value_observed = 1.1

[[record]]
molecule = "C[C@H](c1ccc(-c2ccnnc2)cc1Cl)[C@@](O)(c1ccc2oc(=O)n(C)c2c1)C(F)(F)F (stereo in doubt) [Example 195]"
value_observed = 0.8

[[record]]
molecule = "C[C@@H](c1ccc(-c2ccccc2C(=O)O)cc1Cl)[C@](O)(c1ccc2c(c1)N(C)C(=O)CO2)C(F)(F)F (relative stereo) [Example 24]"
value_observed = 19.6

[[record]]
molecule = "C[C@H](c1ccc(-c2cncnc2)cc1Cl)[C@@](O)(c1ccc2oc(=O)n(C)c2c1)C(F)(F)F (relative stereo) [Example 194]"
value_observed = 0.7

[[record]]
molecule = "COC(=O)c1cnc(Oc2ccc([C@H](C)[C@](O)(c3ccc4c(c3)N(C)C(=O)CO4)C(F)(F)F)c(Cl)c2)c(Cl)c1 (single isomer, unassigned) [Example 222]"
value_observed = 1.6

[[record]]
molecule = "CCOC(=O)C1CCN(c2ccc([C@H](C)[C@](O)(c3ccc4c(c3)N(C)C(=O)CO4)C(F)(F)F)c(Cl)c2)CC1 (stereo in doubt) [Example 42]"
value_observed = 4

[[record]]
molecule = "COC(=O)c1cnc(Oc2ccc([C@@H](C)[C@@](O)(c3ccc4c(c3)N(C)C(=O)CO4)C(F)(F)F)c(Cl)c2)nc1 (racemic) [Example 226]"
value_observed = 5.9

[[record]]
molecule = "C[C@H](c1ccc(-c2ccc(Cl)c(C(=O)O)c2)cc1Cl)[C@@](O)(c1ccc2c(c1)n(C)c(=O)n2C)C(F)(F)F (stereo in doubt) [Example 79]"
value_observed = 1

[[record]]
molecule = "C[C@H](c1ccc(-c2ccc(C(=O)O)c(F)c2)cc1C(F)(F)F)[C@@](O)(c1ccc2oc(=O)n(C)c2c1)C(F)(F)F (stereo in doubt) [Example 200]"
value_observed = 4.5


## Input Quote Ki reported for C[C@H](c1ccc(-c2ccc(C(=O)O)cn2)cc1Cl)[C@@](O)(c1ccc2oc(=O)n(C)c2c1)C(F)(F)F (relative stereo) [Example 128] please.
## Output 1.7

## Input Quote Ki reported for CCOC(=O)c1cc(-c2ccc([C@H](C)[C@](O)(c3ccc4c(c3)N(C)C(=O)CO4)C(F)(F)F)c(Cl)c2)ccc1Cl (relative stereo) [Example 39] please.
## Output 0.7
